Origin of values: the supplement of paper PMC7125110

Exercise: state measured self-cleavage kobs at 640 uM GlcN6P for each of the variants provided.
B1: glmS ribozyme (parent)
chain: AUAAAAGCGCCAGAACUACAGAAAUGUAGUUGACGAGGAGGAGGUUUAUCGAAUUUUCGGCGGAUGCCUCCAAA

# Variants of: B1
# assay-details: self-cleavage kobs at 640 uM GlcN6P; higher = faster cleavage; RNA array
# measurement-parameters: with glucosamine-6-phosphate
Variants at the floor of the assay were thinned out.
Your answer should be a plain number; it is taken to be in s⁻¹.

# get_value(readout='self-cleavage kobs at 640 uM GlcN6P', item= A12G C67A )
7.88e-05

Could you tell me which self-cleavage kobs at 640 uM GlcN6P is on file for U56G G66C ?
9.51e-05

Reported self-cleavage kobs at 640 uM GlcN6P, variant A14G U56C : ____
0.0033

Form field: reported self-cleavage kobs at 640 uM GlcN6P of U55G C70U
0.0043

Which self-cleavage kobs at 640 uM GlcN6P is listed for U54G ?
0.0116

# lookup: self-cleavage kobs at 640 uM GlcN6P of G37A U47G
0.000127

What does the record list as self-cleavage kobs at 640 uM GlcN6P for A48G U54C ?
3.59e-05

Record request: self-cleavage kobs at 640 uM GlcN6P value, item A42U C67A U69G C71U
4.51e-05

# get_value(readout='self-cleavage kobs at 640 uM GlcN6P', item= A53G U55A )
0.0112

Suppose we examine the variant C50U A52G C70A ; what self-cleavage kobs at 640 uM GlcN6P value has been reported?
0.000125

So what does the record say about self-cleavage kobs at 640 uM GlcN6P for U54A G66U ?
0.000521

Record request: self-cleavage kobs at 640 uM GlcN6P value, item C58U C61G C67U
7.86e-05

So what does the record say about self-cleavage kobs at 640 uM GlcN6P for G41A C68U C70U ?
0.00049

Consider the variant C16U A53C and give its measured self-cleavage kobs at 640 uM GlcN6P.
0.00248

Data request, read-out self-cleavage kobs at 640 uM GlcN6P, for U31G G40U
0.000515

Need self-cleavage kobs at 640 uM GlcN6P, item U30A G41U
6.73e-05

# query: self-cleavage kobs at 640 uM GlcN6P of entry C11U G37A
2.98e-05

# get_value(readout='self-cleavage kobs at 640 uM GlcN6P', item= U54C G66A )
0.00522

Can you share its self-cleavage kobs at 640 uM GlcN6P? I mean this variant: U30C U69C
6.58e-05

Tell me the measured self-cleavage kobs at 640 uM GlcN6P of C16U A48U C58G C70G , please.
7.73e-05

# lookup: self-cleavage kobs at 640 uM GlcN6P of G29U U30A
8.73e-05

Query: self-cleavage kobs at 640 uM GlcN6P; subject: G13U U56A
0.000124

I have this variant here, C16U A39U A48U , and I need its recorded self-cleavage kobs at 640 uM GlcN6P.
3.71e-05
